Target: Ba/F3 stable cells (Homo sapiens, UniProt P00533, DUP767-769, cells depend on it)
Construct: EC50 Ba/F3-EGFR V769-D770insASV; other: Ba/F3-EGFR V769-D770insASV cells, 72 h, CCK-8
Sequence (P00533 with tags, fused parts or gaps DUP767-769): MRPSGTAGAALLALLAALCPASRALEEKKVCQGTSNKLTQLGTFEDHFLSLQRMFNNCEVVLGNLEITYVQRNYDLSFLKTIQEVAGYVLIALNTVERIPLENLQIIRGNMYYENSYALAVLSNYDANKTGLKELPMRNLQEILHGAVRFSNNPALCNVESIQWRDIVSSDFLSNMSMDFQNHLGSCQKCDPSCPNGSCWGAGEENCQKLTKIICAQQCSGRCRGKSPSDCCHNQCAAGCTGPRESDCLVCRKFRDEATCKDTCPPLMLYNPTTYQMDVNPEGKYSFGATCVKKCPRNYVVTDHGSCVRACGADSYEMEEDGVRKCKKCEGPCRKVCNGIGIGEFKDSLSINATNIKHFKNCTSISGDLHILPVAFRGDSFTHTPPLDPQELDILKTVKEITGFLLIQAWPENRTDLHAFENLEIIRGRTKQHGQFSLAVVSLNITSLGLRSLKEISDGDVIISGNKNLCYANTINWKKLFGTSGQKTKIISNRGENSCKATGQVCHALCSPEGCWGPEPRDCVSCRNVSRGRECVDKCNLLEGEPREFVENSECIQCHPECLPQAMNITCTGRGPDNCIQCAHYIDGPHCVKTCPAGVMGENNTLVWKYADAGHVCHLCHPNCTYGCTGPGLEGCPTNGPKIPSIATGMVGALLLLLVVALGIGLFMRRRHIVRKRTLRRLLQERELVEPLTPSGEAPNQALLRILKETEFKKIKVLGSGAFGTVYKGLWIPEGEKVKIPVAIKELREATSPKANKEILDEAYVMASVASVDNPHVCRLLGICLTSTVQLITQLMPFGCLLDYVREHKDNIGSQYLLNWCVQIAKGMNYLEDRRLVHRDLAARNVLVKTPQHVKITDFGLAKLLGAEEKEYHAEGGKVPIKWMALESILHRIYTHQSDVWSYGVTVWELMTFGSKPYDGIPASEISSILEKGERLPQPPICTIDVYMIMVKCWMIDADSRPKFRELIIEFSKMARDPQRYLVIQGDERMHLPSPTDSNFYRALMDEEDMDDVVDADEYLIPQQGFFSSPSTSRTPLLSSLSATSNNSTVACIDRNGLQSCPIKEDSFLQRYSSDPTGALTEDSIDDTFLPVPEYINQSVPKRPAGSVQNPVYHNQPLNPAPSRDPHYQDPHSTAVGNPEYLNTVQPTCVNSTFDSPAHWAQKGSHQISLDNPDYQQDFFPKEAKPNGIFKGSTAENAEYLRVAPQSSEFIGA
Test: EC50 assay: Ba/F3 stable cell proliferation (CCK-8, 72 h)
Conditions: Ba/F3-EGFR V769-D770insASV cells
parameter: EC50

Here are 3 molecules together with their reported answers.
> print(dat)
                                   molecule                           subject.of.test  recorded.result
1  C=CC(=O)NC1CC(Oc2cc3c(Nc4ccc(Cl)c(Cl)c4)ncnc3cc2OC)C1 (centres unmarked)  Ba/F3 stable cells (Homo sapiens, UniProt P00533, DUP767-769, cells depend on it)         ≤ 0.2 µM
2  C=CC(=O)N1CCC(Oc2cc3c(Nc4ccc5scnc5c4)ncnc3cc2OC)CC1  Ba/F3 stable cells (Homo sapiens, UniProt P00533, DUP767-769, cells depend on it)         ≤ 0.2 µM
3  C=CS(=O)(=O)N1CCC(Oc2c(OC)cc3ncnc4c3c2NC(=O)N4c2ccc(Cl)c(Cl)c2)CC1  Ba/F3 stable cells (Homo sapiens, UniProt P00533, DUP767-769, cells depend on it)      0.2 to 1 µM

Data request: I'm curious: which EC50 was measured for C=CC(=O)NC1CC(Oc2cc3c(Nc4ccc5c(c4)CCCC5=O)ncnc3cc2OC)C1 (centres unmarked) tested on Ba/F3 stable cells (Homo sapiens, UniProt P00533, DUP767-769, cells depend on it)?
Data returned: > 1 µM

Data request: Any idea what EC50 came out for "C=C(F)C(=O)N1CCC(Oc2cc3c(Nc4ccc(Cl)c(Cl)c4F)ncnc3cc2OC)CC1" on Ba/F3 stable cells (Homo sapiens, UniProt P00533, DUP767-769, cells depend on it)?
Data returned: ≤ 0.2 µM

Data request: Hello, I am looking for reported EC50 with Ba/F3 stable cells (Homo sapiens, UniProt P00533, DUP767-769, cells depend on it) for "C=CC(=O)N1CCC(Oc2cc3c(Nc4cccc5cn[nH]c45)ncnc3cc2OC)CC1" . Could you help?
Data returned: > 1 µM

Data request: Kindly state the measured EC50 obtained for "C=CC(=O)N1CCC(Oc2cc3c(Nc4cccc5cc[nH]c45)ncnc3cc2OC)CC1" with Ba/F3 stable cells (Homo sapiens, UniProt P00533, DUP767-769, cells depend on it).
Data returned: ≤ 0.2 µM

Data request: Item: "C=CC(=O)N1CC(c2cc3c(Nc4ccc(Cl)c(Cl)c4F)ncnc3cc2OCCN2CCN(C)CC2)C1" Test system: Ba/F3 stable cells (Homo sapiens, UniProt P00533, DUP767-769, cells depend on it) Read-out: EC50 Value: ?
Data returned: ≤ 0.2 µM

Data request: Request body: readout EC50, system Ba/F3 stable cells (Homo sapiens, UniProt P00533, DUP767-769, cells depend on it), query C#CC(=O)N1C2CCCC1CC(Oc1cc3c(Nc4cccc5ccccc45)ncnc3cc1OC)C2 (centres unmarked) . Return the value.
Data returned: ≤ 0.2 µM

Data request: Lab request: please report EC50 under test system Ba/F3 stable cells (Homo sapiens, UniProt P00533, DUP767-769, cells depend on it) for "C=CC(=O)N1CC(c2cc3c(Nc4ccc(Cl)c(Cl)c4F)ncnc3cc2OCC)C1"
Data returned: ≤ 0.2 µM

Data request: Query EC50 on Ba/F3 stable cells (Homo sapiens, UniProt P00533, DUP767-769, cells depend on it) for "C=CC(=O)N1CC(c2cc3c(Nc4ccc(F)c(Cl)c4)ncnc3cc2OC)C1"
Data returned: ≤ 0.2 µM

Data request: Request - read-out EC50 | tested on Ba/F3 stable cells (Homo sapiens, UniProt P00533, DUP767-769, cells depend on it) | molecule "C=CC(=O)N1CCC(Oc2cc3c(Nc4ccc5cnccc5c4)ncnc3cc2OC)CC1"
Data returned: > 1 µM

Data request: What reported EC50 corresponds to "C=CC(=O)N1CC(c2cc3c(Nc4ccc(Cl)c(Cl)c4F)ncnc3cc2OCCOC)C1" on Ba/F3 stable cells (Homo sapiens, UniProt P00533, DUP767-769, cells depend on it)?
Data returned: ≤ 0.2 µM

Data request: Form entry - test system: Ba/F3 stable cells (Homo sapiens, UniProt P00533, DUP767-769, cells depend on it); read-out: EC50; molecule: "C=CC(=O)N1CCC(c2ccc3ncnc(Nc4ccc(Cl)c(Cl)c4F)c3c2)CC1"
Data returned: > 1 µM

Data request: Item "C=CC(=O)N1CCC(Oc2cc3c(Nc4nc5cc(Cl)ccc5o4)ncnc3cc2OC)CC1" with Ba/F3 stable cells (Homo sapiens, UniProt P00533, DUP767-769, cells depend on it) - EC50?
Data returned: > 1 µM

Reference source: patent US20250243171A1
